Parameter: koff. Scope: all listed entries.
Target: T1, hK1 (human tissue kallikrein 1), recombinant (human, UniProt P06870 25-262)
T1 construct: Expressed in P. pastoris from KLK1 cDNA and purified; enzymatically active; also called KLK1; Recombinant (Pichia) Kallikrein
Assay: SPR
// return numeric value only (unit: s⁻¹, not printed)

Known results for binders:
1. M0111-C10 (Fab, V domains shown) VH: EVQLLESGGGLVQPGGSLRLSCAASGFTFSRYVMSWVRQAPGKGLEWVSSIRSSGGRTMYADSVKGRFTISRDNSKNTLYLQMNSLRAEDTAVYYCARVGVWYGMDVWGQGTTVTVSS VL: DIQMTQSPSSLSASVGDRVTITCRASQSISSYLNWYQQKPEKAPQLLIFAASSLQSGVPSRFSGSGSGTDFTLTISSLQPEDFATYYCQQSYNAPWTFGQGTKVEIRR
0.00341
2. M0093-E11 (Fab, V domains shown) VH: EVQLLESGGGLVQPGGSLRLSCAASGFTFSHYEMAWVRQAHGKGLEWVSVIYPSGGATRYADSVKGRFTISRDNSKNTLYLQMNSLRAEDTAVYYCARVAQYYGMDVWGQGTTVTVSS VL: DIQMTQSPATLSLSPGERATLSCRASQSVSSYLAWYQQKPGQAPRLLIYDASNRATGIPARFSGSGSGTDFTLTISSLEPEDFAVYYCQQRSNWLTFGGGTKVEIKR
0.0436
3. M0097-F08 (Fab, V domains shown) VH: EVQLLESGGGLVQPGGSLRLSCAASGFTFSNYPMVWVRQAPGKGLEWVSVIGPSGGKTKYADSVKGRFTISRDNSKNTLYLQMNSLRAEDTAVYYCARVGVWYGMDVWGQGTTVTVSS VL: DIQMTQSPSTLSASVGDRVTISCRASQGIGTHLNWYQQKLGNVPKLLIYAASGLQSGVPPRFSGSGSGTDFTLTISSLHPEDSATYFCQQSYSVPRTFGQGTKVEIKR
0.0117

Short answer for M0098-C10 (Fab, V domains shown) VH: EVQLLESGGGLVQPGGSLRLSCAASGFTFSFYSMMWVRQAPGKGLEWVSGISSSGGTTKYADSVKGRFTISRDNSKNTLYLQMNSLRAEDTAVYYCARGGTNYDYVWGSYRSHYYYYGMDVWGQGTTVTVSS VL: DIQMTQSPSSLSASVGDRVTITCRASHNIYTSLNWLQQKPGKAPKLLIYGASTLENGVPSRFSGSASGTDFTLTISSLQPEDSATYYCQQSYTSVTFGQGTKLEIRR : koff was 0.00193

Short answer for M0127-H05 (Fab, V domains shown) VH: EVQLLESGGGLVQPGGSLRLSCAASGFTFSHYLMGWVRQAPGKGLEWVSSIWPSGGHTSYADSVKGRFTISRDNSKNTLYLQMNSLRAEDTAVYYCARHYGMDVWGQGTTVTVSS VL: DIQMTQSPSSLSASVGDRVTITCRASQSISSYLNWYQQKPGKVPKLLIYAASSLQSGVPSRFSGSGSGTDFTLTISSLQPDDFATYYCQQTFSTWTFGQGTKVEIRR : koff was 0.00439
